Origin of measurements: ChEMBL document CHEMBL6083280

# Protocol Text: Cytotoxicity against human Caco-2 cells assessed as cell viability at 100 uM incubated for 48 hrs by CCK-8 assay
# Format: toxicity, cell-based
# Condition: Caco-2 cells
Positions of bridges follow the written chain, without caps; N, C: chain ends. Residues, ends and D or L forms follow the SMILES beside them.
Items are presented alongside their recorded CC50 at 48 h.
Recorded Metric: CC50 at 48 h

| Molecule | Recorded Metric | Recorded Result |
| --- | --- | --- |
| CC(C)C[C@@H]1NC(=O)[C@H](Cc2ccccc2)NC(=O)[C@@H]2CCCN2C(=O)[C@H]([C@@H](C)O)NC(=O)[C@H]([C@@H](C)O)NC(=O)[C@H]([C@@H](C)O)NC(=O)[C@H](Cc2c[nH]cn2)NC(=O)[C@H](Cc2ccccc2)NC(=O)[C@H]([C@@H](C)O)NC(=O)[C@H](C(C)C)NC(=O)[C@@H](Cc2ccc(O)cc2)NC(=O)CSC[C@@H](C(=O)NCC(N)=O)NC(=O)[C@@H]2CCCN2C(=O)[C@@H]2CCCN2C1=O | CC50 at 48 h | > 100 µM |
| CC(C)C[C@@H]1NC(=O)[C@H](CC(N)=O)NC(=O)[C@H](Cc2ccc(O)cc2)NC(=O)CSC[C@@H](C(=O)NCC(N)=O)NC(=O)[C@H](Cc2ccc(O)cc2)NC(=O)[C@H](CCC(N)=O)NC(=O)[C@H]([C@@H](C)O)NC(=O)[C@H]([C@@H](C)O)NC(=O)[C@H](Cc2c[nH]c3ccccc23)NC(=O)[C@H](CC(=O)O)NC(=O)[C@H]([C@@H](C)O)NC(=O)[C@H](CCCNC(=N)N)NC(=O)[C@H](CCC(N)=O)NC(=O)[C@H](Cc2ccccc2)NC1=O ({CH2CO}-YNLFQRTDWTTQYCG-NH2; thioether N-14) | CC50 at 48 h | > 100 µM |
